# credit: the supplement of paper PMC10567573

B1: MATN2 (parent)
chain: TDDSYSCHCLKGFTLNPDKKTCRR

Variants of: B1
Experiment: protein stability index of a GFP-peptide fusion (GPS, HEK-293T) (PSI 1-6); higher = more stable;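 note: lentivirally expressed fusions sorted by FACS into six bins by GFP to DsRed ratio, PSI derived from sequencing read proportions per bin multiplied by bin number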
Conditions: c terminus: a fixed tail appended
Quick reference: protein stability index of the listed items.
reportedMetric: protein stability index

[[record]]
variantdescriptor = "L10H"
reportedmetric = "protein stability index"
measurednumber = 1.86

[[record]]
variantdescriptor = "N16H"
reportedmetric = "protein stability index"
measurednumber = 2.3

[[record]]
variantdescriptor = "G12P"
reportedmetric = "protein stability index"
measurednumber = 2.63

[[record]]
variantdescriptor = "K19F"
reportedmetric = "protein stability index"
measurednumber = 1.61

[[record]]
variantdescriptor = "R23E"
reportedmetric = "protein stability index"
measurednumber = 2.52

[[record]]
variantdescriptor = "F13P"
reportedmetric = "protein stability index"
measurednumber = 2.74

[[record]]
variantdescriptor = "T1Q"
reportedmetric = "protein stability index"
measurednumber = 1.75

[[record]]
variantdescriptor = "L15M"
reportedmetric = "protein stability index"
measurednumber = 2.38

[[record]]
variantdescriptor = "C22A"
reportedmetric = "protein stability index"
measurednumber = 2

[[record]]
variantdescriptor = "K11N"
reportedmetric = "protein stability index"
measurednumber = 2.15

[[record]]
variantdescriptor = "T14D"
reportedmetric = "protein stability index"
measurednumber = 2.14

[[record]]
variantdescriptor = "T1N"
reportedmetric = "protein stability index"
measurednumber = 1.86

[[record]]
variantdescriptor = "T14P"
reportedmetric = "protein stability index"
measurednumber = 1.79

[[record]]
variantdescriptor = "S6G"
reportedmetric = "protein stability index"
measurednumber = 2.4

[[record]]
variantdescriptor = "T1M"
reportedmetric = "protein stability index"
measurednumber = 2.47

[[record]]
variantdescriptor = "L15V"
reportedmetric = "protein stability index"
measurednumber = 2.55

[[record]]
variantdescriptor = "D2Q"
reportedmetric = "protein stability index"
measurednumber = 1.82

[[record]]
variantdescriptor = "F13E"
reportedmetric = "protein stability index"
measurednumber = 2.45

[[record]]
variantdescriptor = "T1V"
reportedmetric = "protein stability index"
measurednumber = 3.42

[[record]]
variantdescriptor = "D3F"
reportedmetric = "protein stability index"
measurednumber = 1.67

[[record]]
variantdescriptor = "K11A"
reportedmetric = "protein stability index"
measurednumber = 2.27

[[record]]
variantdescriptor = "K11E"
reportedmetric = "protein stability index"
measurednumber = 2.87

[[record]]
variantdescriptor = "C9L"
reportedmetric = "protein stability index"
measurednumber = 3.93

[[record]]
variantdescriptor = "L15N"
reportedmetric = "protein stability index"
measurednumber = 2.03

[[record]]
variantdescriptor = "L10M"
reportedmetric = "protein stability index"
measurednumber = 1.9

[[record]]
variantdescriptor = "P17T"
reportedmetric = "protein stability index"
measurednumber = 2.5

[[record]]
variantdescriptor = "C7F"
reportedmetric = "protein stability index"
measurednumber = 3.96

[[record]]
variantdescriptor = "R23D"
reportedmetric = "protein stability index"
measurednumber = 2.62

[[record]]
variantdescriptor = "L10T"
reportedmetric = "protein stability index"
measurednumber = 1.93

[[record]]
variantdescriptor = "K20A"
reportedmetric = "protein stability index"
measurednumber = 2.68

[[record]]
variantdescriptor = "G12I"
reportedmetric = "protein stability index"
measurednumber = 1.78

[[record]]
variantdescriptor = "R23S"
reportedmetric = "protein stability index"
measurednumber = 2.29

[[record]]
variantdescriptor = "C22S"
reportedmetric = "protein stability index"
measurednumber = 2.42

[[record]]
variantdescriptor = "R23C"
reportedmetric = "protein stability index"
measurednumber = 2.83

[[record]]
variantdescriptor = "N16D"
reportedmetric = "protein stability index"
measurednumber = 2.17

[[record]]
variantdescriptor = "F13M"
reportedmetric = "protein stability index"
measurednumber = 2.71

[[record]]
variantdescriptor = "G12K"
reportedmetric = "protein stability index"
measurednumber = 2.41

[[record]]
variantdescriptor = "G12E"
reportedmetric = "protein stability index"
measurednumber = 2.27

[[record]]
variantdescriptor = "H8M"
reportedmetric = "protein stability index"
measurednumber = 2.92

[[record]]
variantdescriptor = "T21Q"
reportedmetric = "protein stability index"
measurednumber = 2.64

[[record]]
variantdescriptor = "S4A"
reportedmetric = "protein stability index"
measurednumber = 1.34

[[record]]
variantdescriptor = "K19P"
reportedmetric = "protein stability index"
measurednumber = 2.19

[[record]]
variantdescriptor = "T1L"
reportedmetric = "protein stability index"
measurednumber = 2.36

[[record]]
variantdescriptor = "H8C"
reportedmetric = "protein stability index"
measurednumber = 2.05

[[record]]
variantdescriptor = "K20W"
reportedmetric = "protein stability index"
measurednumber = 1.48

[[record]]
variantdescriptor = "H8Q"
reportedmetric = "protein stability index"
measurednumber = 2.18

[[record]]
variantdescriptor = "Y5G"
reportedmetric = "protein stability index"
measurednumber = 2.69

[[record]]
variantdescriptor = "K19A"
reportedmetric = "protein stability index"
measurednumber = 2.46

[[record]]
variantdescriptor = "L15S"
reportedmetric = "protein stability index"
measurednumber = 2.17

[[record]]
variantdescriptor = "L10Q"
reportedmetric = "protein stability index"
measurednumber = 1.77

[[record]]
variantdescriptor = "R23Q"
reportedmetric = "protein stability index"
measurednumber = 2.78

[[record]]
variantdescriptor = "T1D"
reportedmetric = "protein stability index"
measurednumber = 2.55

[[record]]
variantdescriptor = "R24T"
reportedmetric = "protein stability index"
measurednumber = 3.15

[[record]]
variantdescriptor = "D18N"
reportedmetric = "protein stability index"
measurednumber = 2.38

[[record]]
variantdescriptor = "K20V"
reportedmetric = "protein stability index"
measurednumber = 1.77

[[record]]
variantdescriptor = "R24S"
reportedmetric = "protein stability index"
measurednumber = 2.87

[[record]]
variantdescriptor = "R23H"
reportedmetric = "protein stability index"
measurednumber = 1.91

[[record]]
variantdescriptor = "K20Y"
reportedmetric = "protein stability index"
measurednumber = 1.53

[[record]]
variantdescriptor = "F13L"
reportedmetric = "protein stability index"
measurednumber = 2.77

[[record]]
variantdescriptor = "K19G"
reportedmetric = "protein stability index"
measurednumber = 1.62

[[record]]
variantdescriptor = "C9F"
reportedmetric = "protein stability index"
measurednumber = 3.47

[[record]]
variantdescriptor = "R24C"
reportedmetric = "protein stability index"
measurednumber = 5.18

[[record]]
variantdescriptor = "T1K"
reportedmetric = "protein stability index"
measurednumber = 1.75

[[record]]
variantdescriptor = "T14R"
reportedmetric = "protein stability index"
measurednumber = 2

[[record]]
variantdescriptor = "L15R"
reportedmetric = "protein stability index"
measurednumber = 2.81

[[record]]
variantdescriptor = "D3Q"
reportedmetric = "protein stability index"
measurednumber = 2.13

[[record]]
variantdescriptor = "C9Q"
reportedmetric = "protein stability index"
measurednumber = 4.1

[[record]]
variantdescriptor = "R23A"
reportedmetric = "protein stability index"
measurednumber = 2.41

[[record]]
variantdescriptor = "R23L"
reportedmetric = "protein stability index"
measurednumber = 2.36

[[record]]
variantdescriptor = "L10Y"
reportedmetric = "protein stability index"
measurednumber = 2.32

[[record]]
variantdescriptor = "R24P"
reportedmetric = "protein stability index"
measurednumber = 2.46

[[record]]
variantdescriptor = "F13C"
reportedmetric = "protein stability index"
measurednumber = 2.39

[[record]]
variantdescriptor = "R24A"
reportedmetric = "protein stability index"
measurednumber = 2.87

[[record]]
variantdescriptor = "F13Y"
reportedmetric = "protein stability index"
measurednumber = 3.04

[[record]]
variantdescriptor = "Y5V"
reportedmetric = "protein stability index"
measurednumber = 2.86

[[record]]
variantdescriptor = "S4G"
reportedmetric = "protein stability index"
measurednumber = 1.88

[[record]]
variantdescriptor = "K11S"
reportedmetric = "protein stability index"
measurednumber = 2.23

[[record]]
variantdescriptor = "C9H"
reportedmetric = "protein stability index"
measurednumber = 3.75

[[record]]
variantdescriptor = "R24W"
reportedmetric = "protein stability index"
measurednumber = 1.99

[[record]]
variantdescriptor = "Y5E"
reportedmetric = "protein stability index"
measurednumber = 2.74

